Data credit: BindingDB's records for doi:10.1021/acs.jmedchem.8b00106

assay: Agonist activity at VDR in human HL60 cells assessed as induction of cell differentiation after 96 hrs by NBT assay
pEC50: −log10 of the molar value.
assay.endpoint: pEC50

Example compounds with recorded pEC50:
# item.smiles, pEC50
data = [
    ("C=CCN(C)C(=O)c1ccc(C(CC)(CC)c2ccc(OCCC(O)(CC)CC)c(C)c2)n1CC", "< 5.00"),
    ("CCn1c(C(=O)N(CCC#N)CCC#N)ccc1C(CC)(CC)c1ccc(OCCC(O)(CC)CC)c(C)c1", "< 5.00"),
]

Now for the compound whose pEC50 we want.
Incoming: Which pEC50 value belongs to CCn1c(C(=O)Oc2ccc(CC(=O)OC)cc2)ccc1C(CC)(CC)c1ccc(OCCC(O)(CC)CC)c(C)c1 ?
Outgoing: < 5.00
